tested on: M. tuberculosis H37Rv (ATCC 27294); experiment: microbe, parasite or virus in culture; format: cell-based; conditions: Mycobacterium tuberculosis, 120 h
Sorting guide: entries reporting MIC beneath 8 ng/mL go in the true (1) pile, the rest go in the false (0) pile.

CO[C@H]1/C=C/O[C@@]2(C)Oc3c(C)c(O)c4c(c3C2=O)C2=NC3(CCN(CC(C)C)CC3)NC2=C(NC(=O)/C(C)=C\C=C\[C@H](C)[C@H](O)[C@@H](C)[C@@H](O)[C@@H](C)[C@H](OC(=O)CN2CCC(N(C)c3ccccc3)CC2)[C@@H]1C)C4=O [Compound 39] ... true (1)

-- ask State whether 8 ng/mL exceeds MIC recorded for CO[C@H]1/C=C/O[C@@]2(C)Oc3c(C)c(O)c4c(c3C2=O)C2=NC3(CCN(CC(C)C)CC3)NC2=C(NC(=O)/C(C)=C\C=C\[C@H](C)[C@H](O)[C@@H](C)[C@@H](O)[C@@H](C)[C@H](OC(=O)CN2CCN(CC3CCCCC3)CC2)[C@@H]1C)C4=O [Compound 40] .
-- reply true (1)

----------
Entries with reported MIC on M. kansasii (ATCC 12478)
Respond with the figure and its unit, in that order.

In the examples that follow, each entry is paired with its recorded MIC.
CO[C@H]1/C=C/O[C@@]2(C)Oc3c(C)c(O)c4c(c3C2=O)C2=NC3(CCN(CC(C)C)CC3)NC2=C(NC(=O)/C(C)=C\C=C\[C@H](C)[C@H](O)[C@@H](C)[C@@H](O)[C@@H](C)[C@H](OC(=O)CN2CCCN(c3ccc(F)cc3)CC2)[C@@H]1C)C4=O ... 9 ng/mL
CO[C@H]1/C=C/O[C@@]2(C)Oc3c(C)c(O)c4c(c3C2=O)C2=NC3(CCN(CC(C)C)CC3)NC2=C(NC(=O)/C(C)=C\C=C\[C@H](C)[C@H](O)[C@@H](C)[C@@H](O)[C@@H](C)[C@H](OC(=O)CN2CCC(Oc3ccccc3)CC2)[C@@H]1C)C4=O ... 20 ng/mL
CO[C@H]1/C=C/O[C@@]2(C)Oc3c(C)c(O)c4c(c3C2=O)C2=NC3(CCN(CC(C)C)CC3)NC2=C(NC(=O)/C(C)=C\C=C\[C@H](C)[C@H](O)[C@@H](C)[C@@H](O)[C@@H](C)[C@H](OC(=O)CNCCN2CCOCC2)[C@@H]1C)C4=O ... 15 ng/mL
CO[C@H]1/C=C/O[C@@]2(C)Oc3c(C)c(O)c4c(c3C2=O)C2=NC3(CCN(CC(C)C)CC3)NC2=C(NC(=O)/C(C)=C\C=C\[C@H](C)[C@H](O)[C@@H](C)[C@@H](O)[C@@H](C)[C@H](OC(=O)CNCCCN(C)C)[C@@H]1C)C4=O ... 5.5 ng/mL
CO[C@H]1/C=C/O[C@@]2(C)Oc3c(C)c(O)c4c(c3C2=O)C2=NC3(CCN(CC(C)C)CC3)NC2=C(NC(=O)/C(C)=C\C=C\[C@H](C)[C@H](O)[C@@H](C)[C@@H](O)[C@@H](C)[C@H](OC(C)=O)[C@@H]1C)C4=O ... 1 ng/mL
CO[C@H]1/C=C/O[C@@]2(C)Oc3c(C)c(O)c4c(c3C2=O)C2=NC3(CCN(CC(C)C)CC3)NC2=C(NC(=O)/C(C)=C\C=C\[C@H](C)[C@H](O)[C@@H](C)[C@@H](O)[C@@H](C)[C@H](OC(=O)CN2CCN(CC3CCCCC3)CC2)[C@@H]1C)C4=O ... 8 ng/mL

# input for lookup
Field MIC (M. kansasii (ATCC 12478)), entry `CO[C@H]1/C=C/O[C@@]2(C)Oc3c(C)c(O)c4c(c3C2=O)C2=NC3(CCN(CC(C)C)CC3)NC2=C(NC(=O)/C(C)=C\C=C\[C@H](C)[C@H](O)[C@@H](C)[C@@H](O)[C@@H](C)[C@H](OC(=O)CN2CCC(n3c(=O)[nH]c5cc(Cl)ccc53)CC2)[C@@H]1C)C4=O` : 15 ng/mL
